Quick list: Fluorescence Intensity Geomean (normalized to background) per entry.
- STUDY SYSTEM: T1, human CD1b expressed on HEK-293 cells (human, UniProt P29016 18-333; P61769 21-119)
- T1 construct: also called HEK - CD1b
- ASSAY PROTOCOL: flow cytometry, HEK-293 cells, 0.0316 µg/ml antibody
Give the value, in units of fold over background, as a plain number.

111 (VR12113) (antibody, V domains shown, also called OX111) VH: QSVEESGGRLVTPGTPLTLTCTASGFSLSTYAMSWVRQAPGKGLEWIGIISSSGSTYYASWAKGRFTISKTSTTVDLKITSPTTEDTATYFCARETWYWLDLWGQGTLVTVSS VL: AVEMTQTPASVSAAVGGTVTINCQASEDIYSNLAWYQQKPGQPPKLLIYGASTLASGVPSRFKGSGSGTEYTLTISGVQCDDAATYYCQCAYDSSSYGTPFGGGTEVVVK | 1
77A (VR11851) (antibody, V domains shown, also called OX77a; antibody 77a) VH: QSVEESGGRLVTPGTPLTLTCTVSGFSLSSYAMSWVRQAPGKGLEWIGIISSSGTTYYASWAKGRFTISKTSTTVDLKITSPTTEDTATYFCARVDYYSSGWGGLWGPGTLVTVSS VL: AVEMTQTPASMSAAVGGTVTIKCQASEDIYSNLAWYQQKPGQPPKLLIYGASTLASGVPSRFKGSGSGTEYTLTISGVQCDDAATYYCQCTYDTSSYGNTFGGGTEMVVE | 0.9
116 (VR12117) (antibody, V domains shown, also called OX116) VH: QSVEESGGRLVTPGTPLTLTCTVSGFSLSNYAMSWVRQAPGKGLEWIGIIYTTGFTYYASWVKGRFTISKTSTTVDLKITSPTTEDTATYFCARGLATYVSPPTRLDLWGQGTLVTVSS VL: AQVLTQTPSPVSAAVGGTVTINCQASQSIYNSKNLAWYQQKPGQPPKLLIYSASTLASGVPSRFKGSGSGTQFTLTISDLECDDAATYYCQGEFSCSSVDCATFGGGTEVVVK | 1

Okay, now this binder:
q: Which Fluorescence Intensity Geomean (normalized to background) value is on record for 110 (VR12112) (antibody, V domains shown, also called OX110; antibody 110) VH: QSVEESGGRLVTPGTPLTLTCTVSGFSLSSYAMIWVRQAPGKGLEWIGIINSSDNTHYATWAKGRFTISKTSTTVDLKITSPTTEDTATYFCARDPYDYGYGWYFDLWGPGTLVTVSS VL: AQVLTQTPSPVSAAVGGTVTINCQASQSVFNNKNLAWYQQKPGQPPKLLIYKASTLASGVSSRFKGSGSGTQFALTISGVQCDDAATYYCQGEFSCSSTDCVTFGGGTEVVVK ?
a: 1
